- target: human GPR52 (Homo sapiens)
- Construct: expressed in transfected cells; host or cells: CHO(dhfr-) cells
- Sequence (Q9Y2T5 whole entry): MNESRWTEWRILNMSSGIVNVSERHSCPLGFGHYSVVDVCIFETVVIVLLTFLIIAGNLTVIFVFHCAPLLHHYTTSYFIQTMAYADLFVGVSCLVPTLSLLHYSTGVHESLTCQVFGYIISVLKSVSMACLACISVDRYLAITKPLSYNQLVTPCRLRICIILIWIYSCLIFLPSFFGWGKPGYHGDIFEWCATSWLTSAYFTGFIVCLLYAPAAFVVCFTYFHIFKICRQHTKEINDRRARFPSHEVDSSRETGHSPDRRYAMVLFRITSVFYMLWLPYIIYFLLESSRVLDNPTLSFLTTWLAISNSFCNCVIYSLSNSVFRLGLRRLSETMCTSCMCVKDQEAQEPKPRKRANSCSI
- experimentNotes: Increase of intracellular cAMP concentration in human GPR52-expressing CHO cell (AlphaScreen cAMP assay)
- Type: cell-based
- conditionParameters: 0.5 h; test compound 10 µm, 37°C, 30 min, human GPR52-expressing CHO(dhfr-) cells; 100% = cAMP with 1 µM N-(2-hydroxyethyl)-3-[2-[3-(trifluoromethyl)benzyl]-1-benzofuran-4-yl]benzamide, 0% = DMSO; read-out: GPR52 agonist activity (%)
Parameter threshold = 80%. Response is satisfied when activation at 10 µM meets or exceeds it, else not satisfied.

| compound | assignedClass |
| --- | --- |
| Cc1nc(Cc2cc(F)cc(Cl)c2)sc1NC(=O)c1ccc(=O)n(C)c1 [Example 167] | not satisfied |
| CCc1cc(C(=O)Nc2sc(Cc3cc(F)cc(Cl)c3)nc2C)n(C)n1 [Example 177] | satisfied |
| Cc1nc(Cc2cccc(C3CC3)c2)sc1NC(=O)c1ccnn1C [Example 227] | satisfied |
| Cc1nc(Cc2cccc(C(F)(F)F)c2)sc1NC(=O)c1cncn1C [Example 43] | not satisfied |
